- experimental_protocol: Pharmacokinetic assessment of X842 in dogs (IV, single oral, repeated oral)
- Type: in vivo
- applied_conditions: beagle, dog, plasma; male dogs, single oral X842 4.8 mg/kg; analyte as labelled
Parameter Cmax: see the listing below.
Only the number, expressed in ng/mL, is required.

[[record]]
compound = "Cc1cccc(C)c1CNc1cc(C(=O)NCCO)cn2c(C)c(C)nc12 [linaprazan]"
quantity_unit = "ng/mL"
result_number = 851


Recorded Cmax of Cc1cccc(C)c1CNc1cc(C(=O)NCCOC(=O)CCCC(=O)O)cn2c(C)c(C)nc12 [X842, linaprazan glurate] , please.
355

====

- experimental_protocol: Pharmacokinetic assessment of X842 in dogs (IV, single oral, repeated oral)
- Type: in vivo
- applied_conditions: beagle, dog, plasma, 1.2 mg/kg; male dogs, repeat oral X842, Day 7; analyte as labelled
# Lookup of reported Cmax at 7 day keyed by entry
Give a bare numeral; the unit ng/mL is implied.

[[record]]
compound = "Cc1cccc(C)c1CNc1cc(C(=O)NCCO)cn2c(C)c(C)nc12"
property_measured = "Cmax at 7 day"
result_number = 67.5


Continue with the next compound.
Could you tell me which Cmax at 7 day is on file for Cc1cccc(C)c1CNc1cc(C(=O)NCCOC(=O)CCCC(=O)O)cn2c(C)c(C)nc12 [X842, linaprazan glurate] ?
15.6

====

- experimental_protocol: Pharmacokinetic assessment of X842 in rats (IV, single oral, repeated oral)
- Type: in vivo, Sprague-Dawley rats
- applied_conditions: female, Sprague-Dawley, rat, plasma, po, 9.6 mg/kg, female rats, single oral X842 9.6 mg/kg; analyte as labelled
property_measured: Cmax (ng/mL)
Expressed in ng/mL, but write only the number.

Given the entry Cc1cccc(C)c1CNc1cc(C(=O)NCCO)cn2c(C)c(C)nc12 [linaprazan] , report its measured Cmax.
336

====

- experimental_protocol: Pharmacokinetic assessment of X842 in dogs (IV, single oral, repeated oral)
- Assay type: in vivo
- applied_conditions: female, beagle, dog, plasma, po, 1.2 mg/kg, female dogs, repeat oral X842, Day 1; analyte as labelled; read-out: AUC(0-24h) Day 1
property_measured: AUC(0-t) (ng·h/mL)
The figure you give is taken to be in ng·h/mL; do not add the unit.

Request the reported AUC(0-t) associated with Cc1cccc(C)c1CNc1cc(C(=O)NCCOC(=O)CCCC(=O)O)cn2c(C)c(C)nc12 [X842, linaprazan glurate]
72.3

Need AUC(0-t), item `Cc1cccc(C)c1CNc1cc(C(=O)NCCO)cn2c(C)c(C)nc12`
412

====

- experimental_protocol: Pharmacokinetic assessment of X842 in dogs (IV, single oral, repeated oral)
- Assay type: in vivo
- applied_conditions: male, beagle, dog, plasma, po, 1.2 mg/kg, male dogs, repeat oral X842, Day 1; analyte as labelled; read-out: AUC(0-24h) Day 1
- Protocol: Pharmacokinetic assessments were conducted by Shanghai Medicilon Inc. Using C18 solid-phase extraction (Shimadzu UFLC-20A, ACE 3, C18, 3.0 µm, 150 × 4.6 mm; Shimadzu, Japan) with the following conditions: mobile phase A: 1 M ammonium acetate in water, mobile phase B: 100% acetonitrile; gradient 0–5 min: 100% A, 5–30 min: 85% A, 35–63 min: 75% A, 63–65 min: 55% A, 65–70 min: 0% A, 72–87 min: 100% A; flow rate 0.7 mL/min; column temperature 30 °C ([Weidof and Covey, 1992]). […]
// AUC(0-t) lookup, one value per entry
Give the value, in units of ng·h/mL, as a plain number.

[[record]]
compound = "Cc1cccc(C)c1CNc1cc(C(=O)NCCO)cn2c(C)c(C)nc12"
property_measured = "AUC(0-t)"
quantity_unit = "ng·h/mL"
result_number = 436


Which AUC(0-t) reading was recorded for the compound Cc1cccc(C)c1CNc1cc(C(=O)NCCOC(=O)CCCC(=O)O)cn2c(C)c(C)nc12 [X842, linaprazan glurate] ?
65.1
